- Measurement setup: human gut metagenome, 24 h, 2 µM; also: call rule not given here
Metric name: Bacterial Biotransformation

// known answers, use as guide
{"columns": ["Compound", "Measurement"],
 "data": [
  ["CC(C)OC(=O)C(C)(C)Oc1ccc(C(=O)c2ccc(Cl)cc2)cc1 [FENOFIBRATE]", "Compound metabolized"],
  ["CC(=O)OCC(=O)[C@@]12N=C(C)O[C@@H]1C[C@H]1[C@@H]3CCC4=CC(=O)C=C[C@]4(C)[C@H]3[C@@H](O)C[C@@]12C", "Compound metabolized"],
  ["CCCC(=O)Nc1ccc(OCC(O)CNC(C)C)c(C(C)=O)c1 (stereo not drawn)", "Compound metabolized"],
  ["CN1CCc2cccc3c2[C@H]1Cc1ccc(O)c(O)c1-3", "Compound NOT metabolized"],
  ["CC(=O)CC(c1ccccc1)c1c(O)c2ccccc2oc1=O (stereo not drawn)", "Compound metabolized"]
]}

Task item: Identify Bacterial Biotransformation associated with the compound "CC(C)c1nc(CN(C)C(=O)N[C@H](C(=O)N[C@@H](Cc2ccccc2)C[C@H](O)[C@H](Cc2ccccc2)NC(=O)OCc2cncs2)C(C)C)cs1"
Reply: Compound metabolized

Task item: # return recorded Bacterial Biotransformation for entry C=CCc1ccccc1OCC(O)CNC(C)C (stereo not drawn)
Reply: Compound NOT metabolized

Task item: Give recorded Bacterial Biotransformation. "Cc1ccc(-c2nc3ccc(C)cn3c2CC(=O)N(C)C)cc1"
Reply: Compound NOT metabolized
